Below, each of the sequences is paired with its reported apparent KD of MS2 coat protein value.
tested on: MS2 coat protein; test: apparent KD of MS2 coat protein; designed switch direction (-1 OFF switch, 1 ON switch): 1; higher = weaker reporter binding; conditions: input ligand: microRNA oligo, concentration not stated
Please respond with the number in nM and leave the unit unwritten.

// known answers, use as guide
input_sequence | apparent KD of MS2 coat protein (nM)
GCACAUGAGGAUCACCCAUGUGCGCUUGAUUGUCCAAGCGCACAGGAUAUACCUCCAAAUGGGAGGUAGAAGGGUGAAAAGAAA [Ravema] (Eterna round: R96, puzzle: Same State NG 3) | 393
GUUAUACAUGAGGAUCACCCAUGUCAAUGUAGUCGAGGAUAUGGGUAGCUAUGAGGCGUACUAGAAGGCGAGGAGU [JL-ss1-3.16 ViennaUCT mod] (Eterna round: R96, puzzle: Same State 1) | 246

Lookup: I'd like to know its apparent KD of MS2 coat protein. The sequence in question is AAAUAAAACACAGGAUAUGCAGUCAAAACGACGGCAGAAGGGUGAGACAUGAGGAUCACCCAUGUACACAUCCCACGGAUGUGC [Anonised] (Eterna round: R96, puzzle: Same State NG 1)
Found: 546

Lookup: I'd like to know its apparent KD of MS2 coat protein. The sequence in question is GAGGAACAGGCCAACAUGAGGAUCACCCAUGUCCUCGCAUUUCAGGAUAUCUGGAAGAAGAAGAAAGAGAAGGGAAGGUGAAGC [AK SSNG3-V2-34.1] (Eterna round: R96, puzzle: Same State NG 3)
Found: 101

Lookup: I'd like to know its apparent KD of MS2 coat protein. The sequence in question is AACGUGUAGGAAGGAUAUAUUGUUCAAGGGAUUGCAAUCUCUAACAUGAGGAUCACCCAUGUAGAGUAGAAGGUCCACCGCAGG [Eternabot solution 40] (Eterna round: R96, puzzle: Same State NG 2)
Found: 13.5

###

system: K4 kissing-loop RNA reporter; test: apparent KD of K4 kissing-loop reporter; higher = weaker reporter binding; details: Eterna round: R107; input ligand: arginine 13.2 mM;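 further: bound reporter read as fluorescence of individual clusters on recovered sequencing chips by microscopy, with normalized cluster intensities fitted with a binding model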
Below, each of the sequences is paired with its reported apparent KD of K4 kissing-loop reporter value.
Please respond with the number in nM and leave the unit unwritten.

input_sequence | apparent KD of K4 kissing-loop reporter, nM
GAAAGAAAGUAUGAUACCAGACACCCGAGUGAUGUUCGGAGCAGUGUGUUGUUCUUUUAAGUCCCUUGGCAGCAUAAAAGAAAAG [whbob_SS_Theo_B_sa85] | 107

Lookup: I'd like to know its apparent KD of K4 kissing-loop reporter. The sequence in question is AAGCAGUCACUCGACGCCAUCGAAGAUGGGCGAGGACCGGUACGGCCGCCACUCGGAGUGAUGUUCUGAUGACUGCAAAAUAAAA [MatMod 8 - Jieux - Exclusion - Tryptophan A]
Found: 52.7

Lookup: I'd like to know its apparent KD of K4 kissing-loop reporter. The sequence in question is GGUGUUGUUUGUGCCGCCUUCCUCGUUCCUCGAGGACCGGUACGGCCGCCACUCGAGUGAUGUUUGGGUAGCGAUCCCUGCUAGU [Bdazzled - #12 Exc. Tryptophan A]
Found: 696

###

system: MS2 coat protein; assay: apparent KD of MS2 coat protein; higher = weaker reporter binding; settings: Eterna round: R107; input ligand: arginine 13.2 mM
Below, each of the sequences is paired with its reported apparent KD of MS2 coat protein value.
Please respond with the number in nM and leave the unit unwritten.

// known answers, use as guide
input_sequence | apparent KD of MS2 coat protein, nM
UAGACGGCCGGAAGGAGCGGUACAUGAGGAUCACCCAUGUACUUCUGGGCAUCCGUAGUGUGCCAGGUAGGUCGCCGGUUGCGGG [XArg-B20] | 45.9
AAAUAAAUACAUGAGGAUCACCCAUGUGAAGGAGCGCGCGUUAGCGCAGGUAGGUCGCACAUGAAUAACUCCGCGCGAAAGCGCA [MAT - Exclusion Arginine A - Mod of Eli - D11] | 11.8
ACCUGUACGAAAAGUGCAGGACACGGAAUACGAGGACCGGUACGGCCGCCACUCGGAACCUGAGGAUCACCCUGGUAAAACCGUG [TrypAS 13 #AlternativeMS2 #Zipper #StaticStem] | 19.9
UGUAUGGACUGAAGGAGCGACUCAAAAUAACAUGAGGAUCACCCAUGUAAGGCGAAAGCCGGUCAGGUAGGUCGCAGUCCAUACU [ArgBX 3] | 13.7
AGCUCAUAGAGUGAUACCAGACUACAUGAGGAUCACCCAUGUUACUUUUAAAUAUCAUUUGUCCCUUGGCAGCACAUGAAGAGCA [JR_Nu_ExcTheophyB_Sub017] | 18.3

Lookup: I'd like to know its apparent KD of MS2 coat protein. The sequence in question is GCGGUCCACUUGGAUACCAGCAGAUUAAUAAACAUGAGGAUCACCCAUGUAAGCGCCUUGUGCCCUUGGCAGCCAGGGUGGUCAG [theeternabot_sameState_MS2_Theo_B_50]
Found: 55.5

Lookup: I'd like to know its apparent KD of MS2 coat protein. The sequence in question is AGCAGCUCGAAAGAGUUGCACUCAUGUGAAGGAGCGCCCGUUAGGGCAGGUAGGUCGCACAUGAGGAUCACCCAUGUACCUUCUA [ArgAX 20 #OpenEnded #MS2Late]
Found: 84.4

Lookup: I'd like to know its apparent KD of MS2 coat protein. The sequence in question is ACUUUGUCGGGUGAUACCAGCCUCGGCAAAUCUCGUGCCGAACAUGAGGAUCACCCAUGUGGCCCUUGGCAGCACAUGACAACUC [Cezara]
Found: 26.3

Lookup: I'd like to know its apparent KD of MS2 coat protein. The sequence in question is AUUUAUAGUUGUGAUACCAGACUUACAUGAGGAUCACCCAUGUUACUUAAAUGUUUUGAUGUCCCUUGGCAGCACUGUUUUUUUA [JR_Nu_ExcTheophyB_Sub029]
Found: 16.1

Lookup: I'd like to know its apparent KD of MS2 coat protein. The sequence in question is AACAUGAGGAUCACCCAUGUACCUUUCGAUCGAGGACCGGUACGGCCGCCACUCGAAAACAUGAGGAUCACCCAUGUUCAACAGG [Tryp A SS t3]
Found: 58.7

Lookup: I'd like to know its apparent KD of MS2 coat protein. The sequence in question is GGGCUCGGAGUGCGGCGUGUUCCGCUCCGUCGAGGACCGGUACGGCCGCCACUCGACAUGAGGAUCACCCAUGUCCGAGCGCGCG [#1 Exclusion - Tryptophan A Attempt #6 (HarryS)]
Found: 19.2
